Reported melting point values follow for various compounds
Give the quantity in °C, number only.

Answered examples (2):
Q) Give its melting point value. Item: OC(Cn1cncn1)(c1ccc(Oc2ccc(Cl)cc2)cc1Cl)C1CC1 (centres unmarked) [Compound I-9]
A) 110

Q) C=CC(O)(Cn1cncn1)c1ccc(Oc2ccc(Cl)cc2)cc1Cl (centres unmarked) [Compound I-10] , same question.
A) 119

// next item, melting point requested
Q) Give its melting point value. Item: CC#CC(O)(Cn1cncn1)c1ccc(Oc2ccc(Cl)cc2)cc1Cl (centres unmarked) [Compound I-8]
A) 139

----------
Tested on: Pyrenophora teres
Assay: Activity against net blotch on barley in the microtiter test
Type: cell-based
Details: comparative microtest Example 1, 7 days after inoculation
parameter_measured: Growth (%) at 8 pm

Q) Give its Growth (%) at 8 pm value. Item: CCCC(O)(Cn1cncn1)c1ccc(Oc2ccc(Cl)cc2)cc1Cl (centres unmarked)
A) 57%

Q) CCC(Cn1cncn1)(OC)c1ccc(Oc2ccc(Cl)cc2)cc1Cl (centres unmarked) [drawing 7] , same question.
A) 39%

Q) CCC(O)(Cn1cncn1)c1ccc(Oc2ccc(Cl)cc2)cc1Cl (centres unmarked) , same question.
A) 13%

Next:
Q) Give its Growth (%) at 8 pm value. Item: CC(O)(Cn1cncn1)c1ccc(Oc2ccc(Cl)cc2)cc1Cl (centres unmarked) [drawing 6]
A) 62%

Q) CCCC(Cn1cncn1)(OC)c1ccc(Oc2ccc(Cl)cc2)cc1Cl (centres unmarked) [drawing 9] , same question.
A) 77%
